Hey, just so you know, these numbers are from patent EP4768499A1.

System: Caco-2 cells
Experiment Description: Membrane permeability test using Caco-2 cells with preincubation
Format: in vitro ADME
Condition Context: preincubation 20 to 24 hours; Apical FaSSIF/HBSS pH 6.0, Basal HBSS 4% BSA pH 7.4; 180 minutes
Experimental: The permeability coefficient (Caco-2 Papp (cm/sec)) is calculated using a numerical expression 1. [Expression 1] Papp = (1)/(C1 (0) × S) × (dQ)/(dt) [formula] dQ/dt represents the permeation rate of drug (the amount of drug appearing on the Basal side per unit time), S represents the total surface area of cells, and C1(0) represents the concentration of drug added on the Apical side. […]
Positions of bridges follow the written chain, without caps; N, C: chain ends. Non-standard residues stand in square brackets, D forms with d. Residues, ends and D or L forms follow the SMILES beside them. *: point of attachment. NMeF = CN[C@@H](Cc1ccccc1)C(=O)O; NMeI = CC[C@H](C)[C@H](NC)C(=O)O; NMeD = CN[C@@H](CC(=O)O)C(=O)O; NMeL = CN[C@@H](CC(C)C)C(=O)O; NMeA = CN[C@@H](C)C(=O)O; Piperidide = C1CCN(*)CC1; Sar = CNCC(=O)O

Molecule	Study Target	Caco2 Papp
CC[C@H](C)[C@@H]1NC(=O)[C@H]([C@@H](C)CC)N(C)C(=O)[C@@H](C)NC(=O)C[C@@H](C(=O)N2CCCCC2)N(C)C(=O)[C@H](C(C)C)NC(=O)[C@H](Cc2ccccc2)N(C)C(=O)[C@H](C(C)C)NC(=O)[C@H](CC(C)C)N(C)C(=O)[C@H](C)NC(=O)CN(C)C(=O)[C@H](CC(C)C)N(C)C(=O)[C@H](C(C)C)NC(=O)[C@H](C)N(C)C(=O)[C@H](Cc2ccccc2)N(C)C1=O [pd074] ([dA][NMeI]I[NMeF][NMeA]V[NMeL][Sar]A[NMeL]V[NMeF]V[NMeD]-Piperidide; lactam N-14)	Caco-2 cells	0.22 10^-6 cm/sec
